Experiment: Equilibrium aqueous solubility in bio-relevant media (SGF, FaSSIF, FeSSIF)
Format: physicochemical
Details: FeSSIF, 25 °C, fessif, thermodynamic from solid, FeSSIF, 25° C., 24 hours; read-out: S, mg/mL (FeSSIF)

| compound | solubility thermodynamic at 24 h (mg/mL) |
| --- | --- |
| Cc1ccc2nc(N3CCS(=O)(=O)c4ccccc4C3)nc(NCC3(N)COC3)c2c1 [Example 5, Form E of compound (I)] | 2.18 |

* * *

Assay: Equilibrium aqueous solubility in bio-relevant media (SGF, FaSSIF, FeSSIF)
Format: physicochemical
Conditions: FaSSIF, 25° C., 24 hours
Items are presented alongside their recorded S, mg/mL (FaSSIF).
measured-attribute: S, mg/mL (FaSSIF) (mg/mL)

| compound | measured-attribute | quantitative-readout |
| --- | --- | --- |
| Cc1ccc2nc(N3CCS(=O)(=O)c4ccccc4C3)nc(NCC3(N)COC3)c2c1 [Example 6, Form F of compound (I)] | S, mg/mL (FaSSIF) | 1.58 |
| Cc1ccc2nc(N3CCS(=O)(=O)c4ccccc4C3)nc(NCC3(N)COC3)c2c1 [Example 3, Form C of compound (I)] | S, mg/mL (FaSSIF) | 0.11 |
| Cc1ccc2nc(N3CCS(=O)(=O)c4ccccc4C3)nc(NCC3(N)COC3)c2c1 [Example 1, Form A of compound (I)] | S, mg/mL (FaSSIF) | 0.12 |
| Cc1ccc2nc(N3CCS(=O)(=O)c4ccccc4C3)nc(NCC3(N)COC3)c2c1 [Example 5, Form E of compound (I)] | S, mg/mL (FaSSIF) | 0.90 |

* * *

Assay: Hygroscopicity of crystal forms by dynamic vapour sorption (DVS)
Format: physicochemical
Conditions: 25° C., 80% RH
Protocol: Dynamic vapour sorption (DVS) was tested using a DVS intrinsic from SMS (Surface Measurement Systems Co. Ltd.). 20 mg compound (I) of each crystal form was placed in an aluminium sample pan and recorded the sample weight change under different humidity. The DVS method parameters were set according to Table 16, and the method was run by the machine based on such parameters. [table]
Items are presented alongside their recorded Hygroscopicity, water sorption @80% RH.

| molecule | Hygroscopicity, water sorption @80% RH (% water sorption @80% RH) |
| --- | --- |
| Cc1ccc2nc(N3CCS(=O)(=O)c4ccccc4C3)nc(NCC3(N)COC3)c2c1 [Example 3, Form C of compound (I)] | 0.04 |
| Cc1ccc2nc(N3CCS(=O)(=O)c4ccccc4C3)nc(NCC3(N)COC3)c2c1 [Example 1, Form A of compound (I)] | 0.25 |
| Cc1ccc2nc(N3CCS(=O)(=O)c4ccccc4C3)nc(NCC3(N)COC3)c2c1 [Example 6, Form F of compound (I)] | 0.50 |
| Cc1ccc2nc(N3CCS(=O)(=O)c4ccccc4C3)nc(NCC3(N)COC3)c2c1 [Example 4, Form D of compound (I)] | 7.52 |
| Cc1ccc2nc(N3CCS(=O)(=O)c4ccccc4C3)nc(NCC3(N)COC3)c2c1 [Example 5, Form E of compound (I)] | 1.12 |

* * *

Test: Equilibrium aqueous solubility in bio-relevant media (SGF, FaSSIF, FeSSIF)
Type: physicochemical
Conditions: FaSSIF, after equilibration at 25° C. for 24 hours
Experimental: Aqueous solubility was determined by suspending 10 mg compound in different bio-relevant media including SGF, FaSSIF and FeSSIF. The suspension was equilibrated at 25° C. for 24 hours then the final pH was measured. The suspension was then filtered through a 0.22 um PVDF filter into a 2-mL HPLC vial. The quantitation was conducted by HPLC (described in Example 10) with reference to a standard solution.
measured-attribute: Final pH (FaSSIF)

| compound | quantitative-readout |
| --- | --- |
| Cc1ccc2nc(N3CCS(=O)(=O)c4ccccc4C3)nc(NCC3(N)COC3)c2c1 [Example 3, Form C of compound (I)] | 6.63 |
| Cc1ccc2nc(N3CCS(=O)(=O)c4ccccc4C3)nc(NCC3(N)COC3)c2c1 [Example 6, Form F of compound (I)] | 4.99 |
| Cc1ccc2nc(N3CCS(=O)(=O)c4ccccc4C3)nc(NCC3(N)COC3)c2c1 [Example 5, Form E of compound (I)] | 5.31 |
| Cc1ccc2nc(N3CCS(=O)(=O)c4ccccc4C3)nc(NCC3(N)COC3)c2c1 [Example 1, Form A of compound (I)] | 6.60 |

* * *

Items are presented alongside their recorded Chemical Purity, %.
Assay: Chemical stability of crystal forms (storage, HPLC chemical purity)
Type: physicochemical
Settings: Initial

| compound | unit-info | Chemical Purity, % |
| --- | --- | --- |
| Cc1ccc2nc(N3CCS(=O)(=O)c4ccccc4C3)nc(NCC3(N)COC3)c2c1 [Example 5, Form E of compound (I)] | % | 99.49 |
| Cc1ccc2nc(N3CCS(=O)(=O)c4ccccc4C3)nc(NCC3(N)COC3)c2c1 [Example 3, Form C of compound (I)] | % | 99.30 |
| Cc1ccc2nc(N3CCS(=O)(=O)c4ccccc4C3)nc(NCC3(N)COC3)c2c1 [Example 2, Form B of compound (I)] | % | 99.81 |
| Cc1ccc2nc(N3CCS(=O)(=O)c4ccccc4C3)nc(NCC3(N)COC3)c2c1 [Example 6, Form F of compound (I)] | % | 99.62 |

* * *

Experiment: Equilibrium aqueous solubility in bio-relevant media (SGF, FaSSIF, FeSSIF)
Type: physicochemical
Details: FeSSIF, after equilibration at 25° C. for 24 hours
Items are presented alongside their recorded Final pH (FeSSIF).
measured-attribute: Final pH (FeSSIF)

| compound | quantitative-readout |
| --- | --- |
| Cc1ccc2nc(N3CCS(=O)(=O)c4ccccc4C3)nc(NCC3(N)COC3)c2c1 [Example 6, Form F of compound (I)] | 5.18 |
| Cc1ccc2nc(N3CCS(=O)(=O)c4ccccc4C3)nc(NCC3(N)COC3)c2c1 [Example 5, Form E of compound (I)] | 5.34 |
| Cc1ccc2nc(N3CCS(=O)(=O)c4ccccc4C3)nc(NCC3(N)COC3)c2c1 [Example 3, Form C of compound (I)] | 5.26 |
| Cc1ccc2nc(N3CCS(=O)(=O)c4ccccc4C3)nc(NCC3(N)COC3)c2c1 [Example 1, Form A of compound (I)] | 5.31 |

* * *

Assay: Equilibrium aqueous solubility in bio-relevant media (SGF, FaSSIF, FeSSIF)
Assay type: physicochemical
Conditions: SGF, after equilibration at 25° C. for 24 hours

| molecule | Final pH (SGF) |
| --- | --- |
| Cc1ccc2nc(N3CCS(=O)(=O)c4ccccc4C3)nc(NCC3(N)COC3)c2c1 [Example 5, Form E of compound (I)] | 4.69 |
| Cc1ccc2nc(N3CCS(=O)(=O)c4ccccc4C3)nc(NCC3(N)COC3)c2c1 [Example 1, Form A of compound (I)] | 4.80 |
| Cc1ccc2nc(N3CCS(=O)(=O)c4ccccc4C3)nc(NCC3(N)COC3)c2c1 [Example 6, Form F of compound (I)] | 3.15 |
| Cc1ccc2nc(N3CCS(=O)(=O)c4ccccc4C3)nc(NCC3(N)COC3)c2c1 [Example 3, Form C of compound (I)] | 4.92 |
